# Kd per record follows
measured on: T1, human AXL expressed on the cell surface of tumor cell lines (human, UniProt P30530 26-894)
T1 construct: whole, on cells; also called cell surface-expressed AXL; cell-based AXL
T1 sequence (looked up): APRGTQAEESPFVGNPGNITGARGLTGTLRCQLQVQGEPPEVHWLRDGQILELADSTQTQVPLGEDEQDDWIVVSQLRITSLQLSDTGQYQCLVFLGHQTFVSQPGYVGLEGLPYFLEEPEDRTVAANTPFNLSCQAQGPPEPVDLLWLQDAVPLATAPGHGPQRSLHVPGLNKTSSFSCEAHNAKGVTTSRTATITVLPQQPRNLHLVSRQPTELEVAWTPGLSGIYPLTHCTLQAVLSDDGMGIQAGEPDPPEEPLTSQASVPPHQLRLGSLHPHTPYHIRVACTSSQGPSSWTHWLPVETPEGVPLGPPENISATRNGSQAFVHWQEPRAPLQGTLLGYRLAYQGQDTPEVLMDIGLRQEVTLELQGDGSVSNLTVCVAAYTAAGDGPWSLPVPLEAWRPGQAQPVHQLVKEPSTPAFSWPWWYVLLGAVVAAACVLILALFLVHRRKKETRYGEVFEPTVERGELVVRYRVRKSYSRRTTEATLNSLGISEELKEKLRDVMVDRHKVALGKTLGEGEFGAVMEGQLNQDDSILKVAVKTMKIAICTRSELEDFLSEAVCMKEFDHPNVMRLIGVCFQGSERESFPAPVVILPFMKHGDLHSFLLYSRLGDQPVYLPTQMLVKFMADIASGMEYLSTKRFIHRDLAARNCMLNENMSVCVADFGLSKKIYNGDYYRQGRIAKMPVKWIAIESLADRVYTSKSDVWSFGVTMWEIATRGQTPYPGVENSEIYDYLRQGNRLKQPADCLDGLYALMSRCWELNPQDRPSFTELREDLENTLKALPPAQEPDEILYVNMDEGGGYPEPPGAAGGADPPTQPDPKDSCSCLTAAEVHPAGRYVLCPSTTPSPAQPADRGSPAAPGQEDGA
test summary: FACS on MDA-MB-231 luciferase cells, apparent Kd, human Fc format
Protocol: FACS binding assay. Adherent cells were dissociated with non-enzymatic Sigma Cell Dissociation Solution (Cat. No. C5789). […] Cell viability was determined using Fixable viability dye 450 (20 min on ice). […] Binding of recombinant chimeric Abs to three cell lines was assessed by FACS as described above. […]
Kindly provide the numeric value in nM only, without the unit symbol.

NRC-sdAb006-Fc (VHH-human IgG1 Fc fusion) (Fc fusion, VHH fused N-terminally to human IgG1 Fc; also called NRC-sdAb006-hIgG1; not shown: human IgG1 Fc) QVKLEESGGGLVQAGASLRLSCVASESIFGFNTMGWYRQAPGNERELVASISNSKRTMYADSVKGRFTISRDNAKNTVNLQMNNLKPEDTAVYYCRAWGIITSATVYWGQGTQVTVSS | 0.832
NRC-sdAb008-Fc (VHH-human IgG1 Fc fusion) (Fc fusion, VHH fused N-terminally to human IgG1 Fc; also called NRC-sdAb008-hIgG1; not shown: human IgG1 Fc) QVKLEESGGGLVQAGGSLRLSCAASGSSGMINTMGWYRQAPGKQRELVARRSTGGTTNYADSVKGRFTISRDDANNTVYLQMNSLKPEDTAVYYCAIIWRTSDLTGRFNTWGQGTQVTVSS | 0.122
NRC-sdAb005-Fc (VHH-human IgG1 Fc fusion) (Fc fusion, VHH fused N-terminally to human IgG1 Fc; also called NRC-sdAb005-hIgG1; not shown: human IgG1 Fc) QVKLEESGGGLAQAGGSLRLSCAASGSISSINTIGWFRQAPGKQRELVAASDSGANRNYADSVKGRFTISRDNAKNTVYLQMNNLKPEDTAIYYCRAWGTGTISTMYWGQGTQVTVSS | 1.47

// next item, Kd requested
input: Any idea what Kd was measured for NRC-sdAb001-Fc (VHH-human IgG1 Fc fusion) (Fc fusion, VHH fused N-terminally to human IgG1 Fc, made in HEK293 cells; also called NRC-sdAb0001-Fc; NRC-sdAb001-hIgG1; not shown: human IgG1 Fc) QVKLEESGGGLVQAGGSLRLSCTASASISSFDIMGWYRQAPGKQRELVAAITTLDIANYRDSVKGRFTISRDNAKNTVYLQMDSLKPEDTARYHCAAFQSDQNYWGQGTQVTVSS ?
output: 0.233
